All figures here come from patent US20240067685A1.

The entries below come with measured MIC values attached.
- System: S. aureus ATCC 12600
- test-description: microbe, parasite or virus in culture
- condition-label: Staphylococcus aureus, ATCC12600, read-out: MIC values
Write the value in µg/mL as a bare number.

Problem: Look up and state reported MIC for O=C(OOC(=O)c1ccccc1)c1ccccc1 [Benzoyl Peroxide]
Solution: 16

Problem: Look up and state reported MIC for CCC[C@@H]1C[C@@H](C(=O)N[C@@H]([C@H]2O[C@H](SC)[C@H](O)[C@@H](O)[C@H]2O)[C@H](C)Cl)N(C)C1 [Clindamycin]
Solution: 0.5

Problem: Look up and state reported MIC for CC(=O)O[C@H]1C[C@@]2(C)[C@@H](C[C@@H](O)[C@H]3[C@@]4(C)CC[C@@H](O)[C@@H](C)[C@@H]4CC[C@@]32C)/C1=C(\CCC=C(C)C)C(=O)O [Fusidic acid]
Solution: 0.06

====

- Test system: S. aureus ATCC 12600
- test-description: microbe, parasite or virus in culture
- condition-label: Staphylococcus aureus, ATCC12600, read-out: MIC values
reported-metric: MIC (µg/mL)
Write the value in µg/mL as a bare number.

1. CN[C@H](CC(C)C)C(=O)N[C@H]1C(=O)N[C@@H](CC(N)=O)C(=O)N[C@H]2C(=O)N[C@H]3C(=O)N[C@H](C(=O)N[C@H](C(=O)O)c4cc(O)cc(O)c4-c4cc3ccc4O)[C@H](O)c3ccc(c(Cl)c3)Oc3cc2cc(c3O[C@@H]2O[C@H](CO)[C@@H](O)[C@H](O)[C@H]2O[C@H]2C[C@](C)(N)[C@H](O)[C@H](C)O2)Oc2ccc(cc2Cl)[C@H]1O; 0.78

Alright, here's another molecule for you.
Problem: Determine reported MIC for CC[C@H]1OC(=O)[C@H](C)[C@@H](O[C@H]2C[C@@](C)(OC)[C@@H](O)[C@H](C)O2)[C@H](C)[C@@H](O[C@@H]2O[C@H](C)C[C@H](N(C)C)[C@H]2O)[C@](C)(O)C[C@@H](C)C(=O)[C@H](C)[C@@H](O)[C@]1(C)O ; test system: S. aureus ATCC 12600.
Solution: 15

====

- Test system: A. baumannii ATCC 17878
- test-description: microbe, parasite or virus in culture
- condition-label: Acinetobacter baumannii, ATCC17878, read-out: MIC values
reported-metric: log10 MIC (log10 of the value in µg/mL)
The base-10 logarithm of MIC, taken with MIC in µg/mL, is what appears here.

Answered examples (4):
1) CN[C@H](CC(C)C)C(=O)N[C@H]1C(=O)N[C@@H](CC(N)=O)C(=O)N[C@H]2C(=O)N[C@H]3C(=O)N[C@H](C(=O)N[C@H](C(=O)O)c4cc(O)cc(O)c4-c4cc3ccc4O)[C@H](O)c3ccc(c(Cl)c3)Oc3cc2cc(c3O[C@@H]2O[C@H](CO)[C@@H](O)[C@H](O)[C@H]2O[C@H]2C[C@](C)(N)[C@H](O)[C@H](C)O2)Oc2ccc(cc2Cl)[C@H]1O [Vancomycin]; 1.70
2) CC[C@H]1OC(=O)[C@H](C)[C@@H](O[C@H]2C[C@@](C)(OC)[C@@H](O)[C@H](C)O2)[C@H](C)[C@@H](O[C@@H]2O[C@H](C)C[C@H](N(C)C)[C@H]2O)[C@](C)(O)C[C@@H](C)C(=O)[C@H](C)[C@@H](O)[C@]1(C)O [Erytromycin]; 2.10
3) O=C(OOC(=O)c1ccccc1)c1ccccc1 [Benzoyl Peroxide]; 1.51
4) CC(=O)O[C@H]1C[C@@]2(C)[C@@H](C[C@@H](O)[C@H]3[C@@]4(C)CC[C@@H](O)[C@@H](C)[C@@H]4CC[C@@]32C)/C1=C(\CCC=C(C)C)C(=O)O [Fusidic acid]; 0.35

Alright, here's another compound for you.
Problem: Look up and state reported log10 MIC for CCC[C@@H]1C[C@@H](C(=O)N[C@@H]([C@H]2O[C@H](SC)[C@H](O)[C@@H](O)[C@H]2O)[C@H](C)Cl)N(C)C1 [Clindamycin]
Solution: 1.80
